// values below are reported apparent Kd
System: MS2 coat protein
Test: apparent Kd, MS2 coat protein; higher = weaker binding; RNA-MaP array; FMN 200 µM where present
Settings: designed as: OFF switch for flavin mononucleotide; no ligand
Reply numerically in nM, unit not repeated.

Some solved entries appear below for comparison.
[
  {
    "sequenceInput": "UAUAUAUAGUAAGGAUAUGUAUAAAUUUUAUAAACAGAAGGUACUGACAUGAGGAUCACCCAUGUUUUAGUGUGGGCAUGUAGA",
    "apparent Kd (nM)": 96.2
  },
  {
    "sequenceInput": "GGUGCUGUGUAGAAGGCAGAUCUGAUUCAGAUCUGAGGAUAUACAUGAGGAUCACCCAUGUUAAGCACCAGCACGAGAGUGCAA",
    "apparent Kd (nM)": 5.8
  },
  {
    "sequenceInput": "GGAUUUACUGAGGAUAUUGCAUCACCCGACUGAUAAGAAGGCAGAACAUGAGGAUCACCCAUGUGGGUACUCAC",
    "apparent Kd (nM)": 53.7
  },
  {
    "sequenceInput": "GGAAAUCAUGUAGGAUAUGCAUGGCGAAGCUACGCAGAAGGACAUGAGGAUCACCCAUGUUCUAGCGUCUGAGUUCAGAUGCAA",
    "apparent Kd (nM)": 20.4
  },
  {
    "sequenceInput": "UGAACUAUGUAGAAGGCCCAUAUUUAUACUUAGGGAGGAUAUACAUGAGGAUCACCCAUGUAUAGAGCAAGUGGACUUGUCACU",
    "apparent Kd (nM)": 17.9
  }
]

// next entry
Can you share its apparent Kd? I mean this sequence: CGGGAGUCAGGAUAUACGAACAUGUCGCCAGAUGUCAUGGUACAUGAGGAUCACCCAUGUAGAAGGGAGGAGAU
139

* * *

System: MS2 coat protein
Assay: apparent Kd, MS2 coat protein; higher = weaker binding; RNA-MaP array
Conditions: ligand present: flavin mononucleotide; designed as: OFF switch for flavin mononucleotide
readout: apparent Kd (nM)
Reply numerically in nM, unit not repeated.

Some solved entries appear below for comparison.
[
  {
    "sequenceInput": "UGAAAUUUGGAGAAGGGACGCACGUGGUAGUGGCUACAUGAGGAUCACCCAUGUUAAUUGAUCAGUCAGGAUAUCCGGUUGUUC",
    "studyTarget": "MS2 coat protein",
    "apparent Kd (nM)": 22.1
  },
  {
    "sequenceInput": "GCUUUAUUAGGAUAUGUAACCGUUAACAUGAGGAUCACCCAUGUUGAUUCUCAAGAGACCACAGAAGGAAUAAAAG",
    "studyTarget": "MS2 coat protein",
    "apparent Kd (nM)": 240
  },
  {
    "sequenceInput": "GUCUGGUCAGGAUAUUCGAGGUGUAACAUGAGGAUCACCCAUGUUUCUUAGCUAGAGGCCGAAGAAGGGACGGGUA",
    "studyTarget": "MS2 coat protein",
    "apparent Kd (nM)": 10.1
  },
  {
    "sequenceInput": "GAACCCAAGGUGAGGAUAUUCGAAGCAACAAAAGGGAAGAAGGCACAUGAGGAUCACCCAUGUAAGAAAGAUAA",
    "studyTarget": "MS2 coat protein",
    "apparent Kd (nM)": 9.52
  }
]

Can you share its apparent Kd? I mean this sequence: UCAUAGUCAGGAUAUUUAUUUGGCGGAGACUGCGGCCACCGAAAGAAGGGACAUGAGGAUCACCCAUGUAUCGG
26.9

Can you share its apparent Kd? I mean this sequence: AUGAGAUGAGGAUAUACUGGGUCCGCAUUAGAAACUUAUCAACAUGAGGAUCACCCAUGUAGAAGGCAUGUGAG
83.2

Can you share its apparent Kd? I mean this sequence: GUGGGCUAGGAGAAGGACGAUCGAAGCCAUAUCGUAGGAUAUCCAUUAAGAUCCCGGACAUGAGGAUCACCCAUGUGGUGAUAG
414

* * *

Test system: MS2 coat protein
Assay: apparent Kd, MS2 coat protein; higher = weaker binding; RNA-MaP array
Settings: ligand present: flavin mononucleotide; designed as: ON switch for flavin mononucleotide
readout: apparent Kd (nM)
Reply numerically in nM, unit not repeated.

[
  {
    "sequenceInput": "UUUGCAGUCGAGAAGGCAAACACAUGAGGAUCACCCAUGUAGACGAGGUAUGUUAUUUCGGGAGUUGAGGAUAUCGUGGUAGGU",
    "apparent Kd, nM": 13.8
  },
  {
    "sequenceInput": "GACGAACAUGAGGAUCACCCAUGUUAACCGAUCACCACGUUCAGAAGGAGGGACAUAACGAGCACCUAGGAUAUGACCAAACAC",
    "apparent Kd, nM": 14.1
  },
  {
    "sequenceInput": "UGAAUACAUGAGGAUCACCCAUGUUACGACCUCACAGGAUAUCAGAUAAAGGCUCUCAUCUGAGAAGGGUGGCUCC",
    "apparent Kd, nM": 38.8
  },
  {
    "sequenceInput": "CGUGAUCGCAGAAAGGAUAUUUGGCCUGUAACAUGAGGAUCACCCAUGUUCAAAUGUGACUUACUAAAGAAGGUUCGAAGAUCCAA",
    "apparent Kd, nM": 7.11
  },
  {
    "sequenceInput": "UCUCAUAUGGAAGGAUAUCAUACCUUGUCGAGAUGAGAAGGUCCGUAUGGACAUAACAUGAGGAUCACCCAUGUUUCUUGUGUU",
    "apparent Kd, nM": 128
  }
]

Can you share its apparent Kd? I mean this sequence: AGCCCACAUGAGGAUCACCCAUGUACUUGGUCCUCAGGAUAUCUAGUUCCAUAUUACAAAAGAGAAGGGAGGAUUG
14.6

Can you share its apparent Kd? I mean this sequence: UAGUAUGGCACAGGAUAUACAAUUAAUAUGCGGGUAGAAGGGUGGUAUCGACAUGAGGAUCACCCAUGUUAGGAAGAAACACAC
78.2

Can you share its apparent Kd? I mean this sequence: GUUCCCUCACAGAAGGAGUGUGUUAGUUGCACAUGAGGAUCACCCAUGUAAUAAACACGUGGCCACUAGGAUAUGUUAAACUGC
10.8

* * *

// values below are reported apparent Kd
System: MS2 coat protein
Assay: apparent Kd, MS2 coat protein; higher = weaker binding; RNA-MaP array; tryptophan 2.4 mM where present
Conditions: designed as: OFF switch for tryptophan; no ligand
Reply numerically in nM, unit not repeated.

Which measured apparent Kd belongs to AAUGUAUGGCACAUGAGGAUCACCCAUGUGCGAGGACCGGUACGGCCGCCACUCGGUCCUGGGAUCUUAAUACUAUACAUUAAUG , tested on MS2 coat protein?
10.9

Which measured apparent Kd belongs to AAUGAGUGGUGGUCAAACAUGGGUGAUCAACGAGGACCGGUACGGCCGCCACUCGAUAACAUGAGGAUCACCCAUGUAAUAAUAA , tested on MS2 coat protein?
234

Which measured apparent Kd belongs to UUCACAUGGUAUGAAUAUACAUAUAAGAAACGAGGACCGGUACGGCCGCCACUCGUGCCGGAAACAUGAGGAUCACCCAUGUGUU , tested on MS2 coat protein?
63.5

Which measured apparent Kd belongs to GAGUAGAGGACGGCCGCCACUAAACAUGAGGAUCACCCAUGUCGUGAUCCGUUACCUAGGGUAGAUAGGACCGGGUCAUGUAGUC , tested on MS2 coat protein?
59.3

* * *

System: MS2 coat protein
Experiment: apparent Kd, MS2 coat protein; higher = weaker binding; RNA-MaP array; theophylline 2 mM where present
Details: designed as: ON switch for theophylline; no ligand
readout: apparent Kd (nM)
Reply numerically in nM, unit not repeated.

[
  {
    "sequenceInput": "GGAUAGAUAGGAGAUACCAGAUACAUCAACAUGAGGAUCACCCAUGUGUCUGCACUAAGUGUCCCUUGGCAGCUCGGAGAUCUGA",
    "readoutUnit": "nM",
    "apparent Kd": 32.3
  },
  {
    "sequenceInput": "ACACCGAAAGGUGCAUUUACCUUAUCAGAUACCAGACUUUACGUUGUCCCUUGGCAGCUGUAUCACAUGAGGAUCACCCAUGUUG",
    "readoutUnit": "nM",
    "apparent Kd": 15.5
  },
  {
    "sequenceInput": "UAAAUAUUACUGGGUAAGGUAUAAAUAGAUACCAGCCAGAUAACUGGCCCUUGGCAGCUAAACAUGAGGAUCACCCAUGUAUAAU",
    "readoutUnit": "nM",
    "apparent Kd": 37
  },
  {
    "sequenceInput": "AGUGUUAUAACUGAUACCAGACUCUCAUGUUUACAUGAGGAUCACCCAUGUUAUUUCUUUGUCCCUUGGCAGCAGAAUUUACACA",
    "readoutUnit": "nM",
    "apparent Kd": 317
  }
]

Can you share its apparent Kd? I mean this sequence: UUAGAUAUGACAGAUACCAGCGUGUUGUAGAACAUGAGGAUCACCCAUGUAGUGAUCGAGCGCCCUUGGCAGCUGGUGUGUUUGG
149

Can you share its apparent Kd? I mean this sequence: UAAAAUAAUAAUGAUACCAGCCCUCCCUCCCGGGACAUGAGGAUCACCCAUGUCUCUCCCGGCCCUUGGCAGCAUAAAUAAUAAU
11.1
